test system: HT-29; assay: NCI tumour cell line growth inhibition, 48 h
Activity calls are given as the source filed them. Rule as the data show it: active = GI50 up to about 1.1 µM and inactive = higher.
Reported GI50 is given for each of the following molecules.
Property: GI50

[[record]]
molecule = "CC(=O)Nc1ccc(C2C(C(=O)Nc3ccccc3C)=C(C)NC(C)=C2C(=O)Nc2ccccc2C)cc1"
meas_value = "> 100 µM (inactive)"

[[record]]
molecule = "COC(=O)/C=c1\\s/c(=C\\C(=O)OC)c2ccccc12"
meas_value = "> 100 µM (inactive)"

[[record]]
molecule = "C=C(Br)CN(CC(=C)Br)C(C)=O"
meas_value = "> 100 µM (inactive)"

[[record]]
molecule = "COc1cc(C=O)cc(/C=N/c2ccc(S(N)(=O)=O)cc2)c1O"
meas_value = "13.7 µM (inactive)"

[[record]]
molecule = "Cc1cc(NS(=O)(=O)c2ccc(Nc3c4ccccc4nc4c(C(=O)NCCN(C)C)cccc34)cc2)no1"
meas_value = "6.03 µM (inactive)"

[[record]]
molecule = "O=C(CCCCCCCCC(=O)N1C(=O)CC(=O)N(c2ccc(Cl)cc2)C1=S)N1C(=O)CC(=O)N(c2ccc(Cl)cc2)C1=S"
meas_value = "73.5 µM (inactive)"

[[record]]
molecule = "CCCNC(=O)C(C)C1CCC2(C)C=CC(=O)C(C)=C2C1O (stereo not drawn)"
meas_value = "> 100 µM (inactive)"

[[record]]
molecule = "CC1(C)CC(C#Cc2ccccc2)CC(C)(C)N1O"
meas_value = "14.2 µM (inactive)"

[[record]]
molecule = "CC(C)C1CCC/C=C/C=C/C=C/C=C/C(OC2OC(C)C(O)C(N)C2O)CC2OC(O)(CC(O)CC(O)C(O)CCC(=O)O1)CC(O)C2C(=O)O (stereo not drawn)"
meas_value = "> 52.5 µM (inactive)"

[[record]]
molecule = "CC1=C(C(=O)Nc2cccc(C(F)(F)F)c2)C(c2ccc(O)cc2)C(C(=O)Nc2cccc(C(F)(F)F)c2)=C(C)N1"
meas_value = "16 µM (inactive)"

[[record]]
molecule = "CCOC(=O)C1=COC(C)(C)CC1=O"
meas_value = "> 100 µM (inactive)"

[[record]]
molecule = "NC(=O)C(=O)N/N=C(\\CC1(O)C(=O)Nc2ccccc21)c1ccc2ccccc2c1 (stereo not drawn)"
meas_value = "34.4 µM (inactive)"

[[record]]
molecule = "COc1ccc(NC2Oc3cc4c(cc3C(c3cc(OC)c(O)c(OC)c3)C2C)OCO4)cc1 (stereo not drawn)"
meas_value = "3.82 µM (inactive)"

[[record]]
molecule = "CCOC(=O)c1nc2ccc(Cl)cc2c2c1CCO2"
meas_value = "> 100 µM (inactive)"

[[record]]
molecule = "Cc1ccc2oc(=O)c(-c3ccccc3)nc2c1"
meas_value = "45.6 µM (inactive)"

[[record]]
molecule = "CC(=O)Nc1ccc(S(=O)(=O)N=S(C)C)cc1"
meas_value = "> 100 µM (inactive)"

[[record]]
molecule = "Cc1c(S(=O)(=O)/N=C(\\NN)Nc2ccc(Cl)cc2)sc2ccc(Cl)cc12"
meas_value = "16.6 µM (inactive)"

[[record]]
molecule = "CCN1CCCc2cc3c(C(F)(F)F)cc(=O)oc3cc21"
meas_value = "48.8 µM (inactive)"

[[record]]
molecule = "COc1cc(/N=C\\N(C)C)c2ncccc2c1"
meas_value = "69.8 µM (inactive)"

[[record]]
molecule = "BC(=O)NC(CC(C)C)C(=O)NC1c2ccsc2C(=O)C1O.CN(C)C (stereo not drawn)"
meas_value = "> 100 µM (inactive)"

[[record]]
molecule = "C=C1C2CC[C@@](C)(O)C2[C@H]2OC(=O)C(=C)[C@@H]2C[C@H]1O (stereo partly drawn)"
meas_value = "16.1 µM (inactive)"

[[record]]
molecule = "C=C(C)OCOCCOC"
meas_value = "> 100 µM (inactive)"

[[record]]
molecule = "CCC1(CC)C(=O)N(C(=O)c2ccc(Cl)cc2)N(C(=O)c2ccccc2Cl)C1=O"
meas_value = "10.7 µM (inactive)"

[[record]]
molecule = "N#CC12C(=O)N3C(=NC(c4ccccc4)NC3c3ccccc3)C1(C#N)C(c1ccccc1)NC1=C2CCC1 (stereo not drawn)"
meas_value = "> 100 µM (inactive)"

[[record]]
molecule = "Oc1cc(Cl)cc2cc(Br)cnc12"
meas_value = "11.3 µM (inactive)"

[[record]]
molecule = "Cc1cc(O)nc(NNC(C#N)c2ccc(O)cc2)n1 (stereo not drawn)"
meas_value = "> 100 µM (inactive)"

[[record]]
molecule = "O=C(Nc1ccccc1SC(/C=C/NNC1=NN=C(c2ccccc2)C(c2ccccc2)N1)c1ccccc1)c1ccc(Cl)cc1Cl (stereo not drawn)"
meas_value = "> 100 µM (inactive)"

[[record]]
molecule = "COc1ccc(NC(=O)CC(=O)N/N=C/c2ccc(N(CCC#N)S(C)(=O)=O)cc2)cc1"
meas_value = "> 100 µM (inactive)"

[[record]]
molecule = "COC(=O)Cc1cc(=O)oc2c1C(=O)CCC2"
meas_value = "> 100 µM (inactive)"

[[record]]
molecule = "CN(C)CCCN1C(=O)N(CCCN(C)C)c2c3cc(O)ccc3nc3c([N+](=O)[O-])ccc1c23"
meas_value = "11.8 µM (inactive)"

[[record]]
molecule = "COC(=O)c1c(O)ccc2c1C1(Cc3ccccc3C1=O)C(O)O2 (stereo not drawn)"
meas_value = "43.2 µM (inactive)"

[[record]]
molecule = "CCCN(CCCN)/[N+]([O-])=N\\O"
meas_value = "> 100 µM (inactive)"

[[record]]
molecule = "CC(C)/C(=N\\[N+](C)(C)C)c1ccccc1"
meas_value = "> 100 µM (inactive)"

[[record]]
molecule = "NNC(=S)N/N=C(\\C(=O)Nc1cccc(O)c1)C1C(=O)NC(=S)NC1=O"
meas_value = "> 100 µM (inactive)"

[[record]]
molecule = "Cc1nc2ccccc2c(-n2cccn2)c1CCn1cccn1"
meas_value = "> 100 µM (inactive)"

[[record]]
molecule = "NCCCCNCCCNC(=O)c1nc(-c2nc(CCN)sc2Cl)sc1Cl"
meas_value = "> 100 µM (inactive)"

[[record]]
molecule = "CC(=O)N1C2=CCCC2(C)c2ccccc21 (stereo not drawn)"
meas_value = "63.5 µM (inactive)"

[[record]]
molecule = "CC/C=C/C[C@H](O[Si](C)(C)C(C)(C)C)[C@H]1C[C@H]2O[C@H]([C@@H](O)C#C[Si](C)(C)C)C[C@H]2O1"
meas_value = "11.9 µM (inactive)"

[[record]]
molecule = "Cc1cccc(NC(=S)N/N=C2\\C(=O)Nc3ccccc32)c1"
meas_value = "> 100 µM (inactive)"

[[record]]
molecule = "Nc1cc(O)nc(SC2=NC(N)CC(O)C2)n1 (stereo not drawn)"
meas_value = "> 100 µM (inactive)"

[[record]]
molecule = "O=C1C(=O)C2(CC1S(=O)(=O)c1ccccc1)c1ccccc1-c1ccccc12 (stereo not drawn)"
meas_value = "27 µM (inactive)"

[[record]]
molecule = "C=C(Cl)C(Br)(CCl)CCC(Br)C(C)(C)Cl (stereo not drawn)"
meas_value = "2.02 µM (inactive)"

[[record]]
molecule = "CCCc1[nH]c2ccccc2c1-c1c(CCC)[nH]c2ccccc12"
meas_value = "8.61 µM (inactive)"


Where these numbers come from: ChEMBL document CHEMBL1201862
